Values from patent US12459951B2

Test system: KRas wild type
Test: Ras GTP Binding Domain Inhibition Assay (Ras Superfamily Assay)
Settings: 20 μM compound, without SOS
Text: Biological Example 3: Ras GTP Binding Domain Inhibition Assay The assays described in Example 3 are collectively referred to as the “Ras Superfamily Assay” throughout this application. […] The small GTPases proteins: KRas wild type. KRas Q61H mutant, KRas G12C mutant, KRas G12D mutants, Rac-1, and Rho-A were expressed as His-tagged proteins. In addition, the Guanosine nucleotide Exchange Factor (GEF) Sos protein (residues 556-1049) was expressed as a His-tagged protein. […]
measure: KRas wild type: % inh.

Some entries whose results are on file:
[
  {
    "compound": "COc1cccc(-c2cn3nc(-c4nccn4C)nc(N[C@H]4C[C@@H](OC)C4)c3c2-c2ccccc2)c1Cl [Compound 31]",
    "target.system": "KRas wild type",
    "measure": "KRas wild type: % inh.",
    "observed.measurement": "A (A = 1-25% inhibition)"
  },
  {
    "compound": "COCCO[C@H]1C[C@H](Nc2nc(-c3nccn3C)nn3cc(-c4ccnc(OC)c4)c(C)c23)C1 [Compound 161]",
    "target.system": "KRas wild type",
    "measure": "KRas wild type: % inh.",
    "observed.measurement": "A (A = 1-25% inhibition)"
  },
  {
    "compound": "COc1cc(Nc2nc(-c3nccn3C)nn3cc(-c4cccnc4)c(-c4ccccn4)c23)ncn1 [Compound 167]",
    "target.system": "KRas wild type",
    "measure": "KRas wild type: % inh.",
    "observed.measurement": "A (A = 1-25% inhibition)"
  },
  {
    "compound": "COc1cccc(-c2cn3nc(-c4nccn4C)nc(N[C@H]4C[C@H](OC)C4)c3c2-c2ccn(C)n2)c1F [Compound 47]",
    "target.system": "KRas wild type",
    "measure": "KRas wild type: % inh.",
    "observed.measurement": "0 (0 = 0% inhibition)"
  }
]

Next item in the queue.
[ask] May I ask what KRas wild type: % inh. has been recorded for COc1cc(-c2cn3nc(-c4nccn4C)nc(N[C@@H]4CC[C@@H](OC)C4)c3c2C)ccn1 (racemic) [Compound 163] ?
[reply] 0 (0 = 0% inhibition)

###

Test system: KRas G12C mutant
Assay: Ras GTP Binding Domain Inhibition Assay (Ras Superfamily Assay)
Settings: 20 μM compound, with SOS
measure: KRas G12C mutant + SOS: % inh.

[
  {
    "compound": "COc1cccc(-c2cn3nc(-c4nccn4C)nc(O)c3c2C)c1Cl",
    "target.system": "KRas G12C mutant",
    "observed.measurement": "0 (0 = 0% inhibition)"
  },
  {
    "compound": "COc1cnc(Nc2nc(-c3nccn3C)nn3cc(-c4ccn(C(C)C)n4)c(C)c23)nc1",
    "target.system": "KRas G12C mutant",
    "observed.measurement": "A (A = 1-25% inhibition)"
  },
  {
    "compound": "COCC1CCN(c2nc(-c3nccn3C)nn3cc(-c4ccn(C(C)C)n4)c(C)c23)C1 (racemic)",
    "target.system": "KRas G12C mutant",
    "observed.measurement": "0 (0 = 0% inhibition)"
  },
  {
    "compound": "COc1cccc(-c2cn3nc(-c4nccn4C)nc(O)c3c2-c2ccccc2)c1Cl",
    "target.system": "KRas G12C mutant",
    "observed.measurement": "A (A = 1-25% inhibition)"
  }
]

Next item in the queue.
[ask] May I ask what KRas G12C mutant + SOS: % inh. has been recorded for COc1cccc(Nc2nc(-c3ccccn3)nn3cc(-c4ccn(C(C)C)n4)c(C)c23)n1 ?
[reply] 0 (0 = 0% inhibition)

###

Assay: Mouse Liver Microsome Metabolic Stability Assay
Type: in vitro ADME
Conditions: pH 7.4, Mouse liver microsomes, 37° C., NADPH, read-out: t½
Listing of recorded half-life at 2 µM by entry.

[
  {
    "compound.structure.string": "Cc1c(-c2ccn(C)n2)cn2nc(-c3nccn3C)nc(Nc3cc(OCC(F)(F)F)ccn3)c12",
    "half-life at 2 µM": "> 10 min"
  },
  {
    "compound.structure.string": "Cc1c(-c2ccn(C)n2)cn2nc(-c3nccn3C)nc(Nc3cc(-c4ccccn4)ccn3)c12",
    "half-life at 2 µM": "> 10 min"
  }
]

[ask] May I ask what half-life at 2 µM has been recorded for COc1cc(Nc2nc(-c3nccn3C)nn3cc(-c4ccn(C)n4)c(C)c23)ncc1C ?
[reply] > 10 min

[ask] Again, but for Cc1c(-c2ccn(C)n2)cn2nc(-c3nccn3C)nc(Nc3cc(-c4cccnc4)ccn3)c12
[reply] < 10 min

###

Target: cdc42 (Homo sapiens, UniProt P60953)
Construct: made in house
Sequence (P60953 whole entry): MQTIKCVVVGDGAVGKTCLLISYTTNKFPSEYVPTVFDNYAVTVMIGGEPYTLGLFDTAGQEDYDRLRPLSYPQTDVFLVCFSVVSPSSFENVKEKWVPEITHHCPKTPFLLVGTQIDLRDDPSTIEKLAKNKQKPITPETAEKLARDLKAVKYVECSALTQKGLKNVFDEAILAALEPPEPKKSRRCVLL
Experiment: Cdc42 GTP Binding Domain Inhibition Assay
Conditions: read-out: Cdc42: % inh.
Listing of recorded inhibition at 20 µM by entry.

[ask] May I ask what inhibition at 20 µM has been recorded for COc1ccc(-c2cn3nc(-c4nccn4C)nc(Nc4cc(OC)ncn4)c3c2C)cn1 ?
[reply] 76 to 100%

[ask] Again, but for COc1cncnc1Nc1nc(-c2nccn2C)nn2cc(-c3ccn(C(C)C)n3)c(C)c12
[reply] 50 to 75%

[ask] Again, but for COc1cc(Nc2nc(-c3nccn3C)nn3cc(-c4cccnc4)c(C)c23)ncn1
[reply] 50 to 75%

###

Tested on: active/cleaved caspase 9
Assay: Cell-based caspase activation assay (western blot)
Design: species or system human
Conditions: BT-549, after 48 hours
measure: Caspase 9 activation

[
  {
    "compound.structure.string": "COc1ccnc(Nc2nc(-c3nccn3C)nn3cc(-c4ccn(C(C)C)n4)c(C)c23)c1",
    "observed.measurement": "yes"
  },
  {
    "compound.structure.string": "COc1cc(Nc2nc(-c3nccn3C)nn3cc(-c4ccn(C(C)C)n4)c(C)c23)ncn1",
    "observed.measurement": "yes"
  },
  {
    "compound.structure.string": "Cc1c(-c2ccn(C(C)C)n2)cn2nc(-c3nccn3C)nc(Nc3cc4n(n3)CCO4)c12",
    "observed.measurement": "yes"
  },
  {
    "compound.structure.string": "Cc1c(-c2ccn(C)n2)cn2nc(-c3nccn3C)nc(Nc3cc4n(n3)CCO4)c12",
    "observed.measurement": "yes"
  }
]

###

Target: Rac-1 (Homo sapiens)
Construct: made in house
Assay: Ras GTP Binding Domain Inhibition Assay (Ras Superfamily Assay)
Conditions: read-out: Rac-1: % inh.
measure: inhibition at 20 µM

Some entries whose results are on file:
[
  {
    "compound.structure.string": "COc1ccnc(Nc2nc(-c3nccn3C)nn3cc(-c4ccn(C)n4)c(C)c23)c1",
    "observed.measurement": "76 to 100%"
  },
  {
    "compound.structure.string": "Cc1c(-c2ccn(C)n2)cn2nc(-c3nccn3C)nc(Nc3cc(OCC(F)(F)F)ccn3)c12",
    "observed.measurement": "26 to 49%"
  },
  {
    "compound.structure.string": "Cc1c(-c2ccn(C3CC3)n2)cn2nc(-c3nccn3C)nc(Nc3cc(OCC(F)(F)F)ccn3)c12",
    "observed.measurement": "76 to 100%"
  },
  {
    "compound.structure.string": "Cc1c(-c2ccn(C3CC3)n2)cn2nc(-c3nccn3C)nc(Nc3cc(OCCO)ccn3)c12",
    "observed.measurement": "76 to 100%"
  },
  {
    "compound.structure.string": "COc1cc(Nc2nc(-c3nccn3C)nn3cc(-c4cccnc4)c(-c4cccnc4)c23)ncn1",
    "observed.measurement": "76 to 100%"
  },
  {
    "compound.structure.string": "COc1cc(Nc2nc(-c3nccn3C)nn3cc(-c4cccnc4)c(-c4ccccn4)c23)ncn1",
    "observed.measurement": "1 to 25%"
  },
  {
    "compound.structure.string": "COc1cc(Nc2nc(-c3nccn3C)nn3cc(-c4ccn(C)n4)c(C)c23)ncn1",
    "observed.measurement": "76 to 100%"
  }
]

[ask] May I ask what inhibition at 20 µM has been recorded for COc1cc(Nc2nc(-c3nccn3C)nn3cc(-c4cccc(OC)n4)c(C)c23)ncn1 ?
[reply] 76 to 100%

###

System: KRas wild type
Assay: Ras GTP Binding Domain Inhibition Assay (Ras Superfamily Assay)
Conditions: at 20 μM, without SOS
measure: KRas wild type: % inh.

[ask] May I ask what KRas wild type: % inh. has been recorded for CO[C@H]1C[C@H](Nc2nc(-c3nccn3C)nn3cc(-c4ccccc4)c(-c4ccccc4)c23)C1 ?
[reply] 0 (0 = 0% inhibition)

###

Test system: Erk1/2 phosphorylation
Test: Erk1/2 Phosphorylation Assay (western blot), Panc-1
Format: cell-based, human
Details: at 10 μM, * = activation
measure: % inh of Erk1/2 phosphorylation in Panc-1

[
  {
    "compound": "COc1ccnc(Nc2nc(-c3nccn3C)nn3cc(-c4cccnc4)c(-c4ccccn4)c23)c1",
    "observed.measurement": "B* (26-49% activation)"
  },
  {
    "compound": "Cc1c(-c2ccn(C(C)C)n2)cn2nc(-c3nccn3C)nc(Nc3nnc(C4CC4)[nH]3)c12",
    "observed.measurement": "0 (0% inhibition)"
  },
  {
    "compound": "COCCNc1nc(-c2nccn2C)nn2cc(-c3cccc(OC)c3Cl)c(C)c12",
    "observed.measurement": "A (1-25% inhibition)"
  },
  {
    "compound": "COc1cccc(-c2cn3nc(-c4nccn4C)nc(N[C@H]4C[C@H](OC)C4)c3c2-c2ccccc2)c1Cl",
    "observed.measurement": "D (85-100% inhibition)"
  },
  {
    "compound": "COc1cccc(Nc2nc(-c3nccn3C)nn3ccc(C)c23)n1",
    "observed.measurement": "0 (0% inhibition)"
  }
]

[ask] Find the measured % inh of Erk1/2 phosphorylation in Panc-1: item COc1cc(Nc2nc(-c3nccn3C)nn3cc(-c4ccn(C(C)C)n4)c(-c4ccccc4)c23)ncn1 , target or system Erk1/2 phosphorylation.
[reply] 0 (0% inhibition)

[ask] Again, but for COC1CCCN(c2nc(-c3nccn3C)nn3cc(-c4ccn(C(C)C)n4)c(C)c23)C1 (racemic)
[reply] D (85-100% inhibition)

[ask] Again, but for Cc1c(-c2ccn(C)n2)cn2nc(-c3nccn3C)nc(Nc3ccc(OCC(F)(F)F)cn3)c12
[reply] D* (85-100% activation)

[ask] Again, but for COCCO[C@H]1C[C@H](Nc2nc(-c3nccn3C)nn3cc(-c4cccnc4)c(C)c23)C1
[reply] B* (26-49% activation)

[ask] Again, but for COc1ncncc1Nc1nc(-c2nccn2C)nn2cc(-c3ccn(C(C)C)n3)c(C)c12
[reply] 0 (0% inhibition)

[ask] Again, but for COc1cc(Nc2nc(-c3ccccn3)nn3cc(-c4ccn(C(C)C)n4)c(C)c23)ncn1
[reply] 0 (0% inhibition)

[ask] Again, but for Cc1c(-c2ccn(C)n2)cn2nc(-c3nccn3C)nc(Nc3n[nH]c(C4CC4)n3)c12
[reply] D* (85-100% activation)

[ask] Again, but for COCCOc1cc(Nc2nc(-c3nccn3C)nn3cc(-c4ccn(C(C)C)n4)c(C)c23)ncn1
[reply] A* (1-25% activation)

[ask] Again, but for Cc1c(-c2ccn(C)n2)cn2nc(-c3nccn3C)nc(Nc3cc[nH]n3)c12
[reply] C (50-84% inhibition)

[ask] Again, but for COc1cc(Nc2nc(-c3nccn3C)nn3cc(-c4cccc(OC)n4)c(C)c23)ncn1
[reply] A (1-25% inhibition)

[ask] Again, but for Cc1[nH]nc(Nc2nc(-c3nccn3C)nn3cc(-c4ccn(C)n4)c(C)c23)c1C
[reply] D* (85-100% activation)

[ask] Again, but for Cc1c(-c2ccn(C(C)C)n2)cn2nc(-c3nccn3C)nc(Nc3cc(C4CC4)n[nH]3)c12
[reply] D* (85-100% activation)

[ask] Again, but for Cc1c(-c2cccnc2)cn2nc(-c3nccn3C)nc(Nc3ccncn3)c12
[reply] D* (85-100% activation)

[ask] Again, but for Cc1c(-c2ccn(C)n2)cn2nc(-c3nccn3C)nc(Nc3ccc(N(C)C)cn3)c12
[reply] C* (46-84% activation)

[ask] Again, but for COc1ccnc(Nc2nc(-c3nccn3C)nn3cc(-c4ccn(C(C)C)n4)c(C)c23)n1
[reply] D (85-100% inhibition)

[ask] Again, but for Cc1c(-c2ccn(C)n2)cn2nc(-c3nccn3C)nc(N)c12
[reply] A* (1-25% activation)

[ask] Again, but for Cn1ccnc1-c1nc(NS(C)(=O)=O)c2c(-c3ccccc3)c(-c3ccccc3)cn2n1
[reply] B* (26-49% activation)
